# Experimental System: Epidermal growth factor receptor (Homo sapiens, UniProt P00533)
# Sequence (P00533 whole entry): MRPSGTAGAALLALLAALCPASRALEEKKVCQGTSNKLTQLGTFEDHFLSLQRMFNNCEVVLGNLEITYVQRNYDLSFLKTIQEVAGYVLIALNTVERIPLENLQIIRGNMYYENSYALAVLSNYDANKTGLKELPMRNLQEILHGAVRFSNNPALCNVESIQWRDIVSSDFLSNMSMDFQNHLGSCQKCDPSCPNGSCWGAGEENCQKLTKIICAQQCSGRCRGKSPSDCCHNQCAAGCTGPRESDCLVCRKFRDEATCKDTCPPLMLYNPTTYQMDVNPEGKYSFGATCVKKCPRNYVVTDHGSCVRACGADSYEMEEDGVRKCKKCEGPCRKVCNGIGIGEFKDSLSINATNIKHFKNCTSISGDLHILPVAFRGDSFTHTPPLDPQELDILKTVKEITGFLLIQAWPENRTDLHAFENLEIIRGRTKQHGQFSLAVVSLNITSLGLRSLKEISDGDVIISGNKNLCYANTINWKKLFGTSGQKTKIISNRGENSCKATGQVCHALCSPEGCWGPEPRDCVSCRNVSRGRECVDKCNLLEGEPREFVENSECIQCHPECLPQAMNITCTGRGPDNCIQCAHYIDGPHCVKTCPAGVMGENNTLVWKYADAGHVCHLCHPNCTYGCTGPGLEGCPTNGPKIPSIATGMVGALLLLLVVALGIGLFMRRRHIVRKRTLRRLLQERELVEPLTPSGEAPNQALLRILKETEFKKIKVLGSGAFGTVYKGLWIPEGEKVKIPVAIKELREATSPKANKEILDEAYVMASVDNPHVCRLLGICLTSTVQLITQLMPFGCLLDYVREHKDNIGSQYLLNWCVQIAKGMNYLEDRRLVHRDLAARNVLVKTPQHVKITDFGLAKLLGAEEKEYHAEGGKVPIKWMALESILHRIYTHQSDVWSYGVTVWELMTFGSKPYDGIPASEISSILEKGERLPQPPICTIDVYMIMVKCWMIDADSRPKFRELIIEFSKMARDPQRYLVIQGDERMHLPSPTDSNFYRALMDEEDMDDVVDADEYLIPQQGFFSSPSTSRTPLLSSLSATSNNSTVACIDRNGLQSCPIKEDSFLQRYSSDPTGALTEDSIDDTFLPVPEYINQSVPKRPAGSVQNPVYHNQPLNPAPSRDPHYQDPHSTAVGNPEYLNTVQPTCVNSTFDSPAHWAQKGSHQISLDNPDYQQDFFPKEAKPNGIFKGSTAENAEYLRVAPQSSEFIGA
# Experiment Description: Inhibition of recombinant human N-terminal GST-tagged EGFR (696 to end residues) expressed in baculovirus Sf21 insect cells preincubated for 5 mins followed by substrate addition after 30 to 60 mins in presence of ATP by fluorescence assay
pIC50: −log10 of the molar value.

Molecule Smiles: C=CS(=O)(=O)N1CCC[C@@H]1Cn1cc(-c2ccc3c(c2)OCO3)c2c(N)ncnc21
Experimental System: Epidermal growth factor receptor (Homo sapiens, UniProt P00533)
pIC50: 6.19

====

Parameter IC50: see the listing below.
# Tested on: NCI-H1975
# Experiment Description: Antiproliferative activity against human NCI-H1975 cells harboring EGFR L858R/T790M mutant after 72 hrs by MTT assay
# Type: functional, cell-based
# Condition Set: NCI-H1975, 72 h
Observation Type: IC50 (µM)

Compound: C=CC(=O)N1CCC[C@@H](n2nc(-c3ccc(Oc4ccccc4)cc3)c3c(N)ncnc32)C1
Obs Value: 1.27
//
Compound: C=CS(=O)(=O)N1CCC[C@@H]1Cn1cc(-c2ccc3c(c2)OCO3)c2c(N)ncnc21
Obs Value: 0.92
//
Compound: C=CC(=O)N1CCC[C@@H]1Cn1cc(-c2ccc(Oc3ccccc3)cc2)c2c(N)ncnc21
Obs Value: 1.92
//
Compound: C=CC(=O)N1CCC(Cn2cc(-c3ccc(Oc4ccccc4)cc3)c3c(N)ncnc32)C1 (single isomer, unassigned)
Obs Value: 6.31
//
Compound: C=CC(=O)N1CCC[C@@H]1Cn1cc(-c2ccc3c(c2)OCO3)c2c(N)ncnc21
Obs Value: 2.92

====

# Experimental System: Tyrosine-protein kinase BTK (Homo sapiens)
# Sequence (Q06187 whole entry): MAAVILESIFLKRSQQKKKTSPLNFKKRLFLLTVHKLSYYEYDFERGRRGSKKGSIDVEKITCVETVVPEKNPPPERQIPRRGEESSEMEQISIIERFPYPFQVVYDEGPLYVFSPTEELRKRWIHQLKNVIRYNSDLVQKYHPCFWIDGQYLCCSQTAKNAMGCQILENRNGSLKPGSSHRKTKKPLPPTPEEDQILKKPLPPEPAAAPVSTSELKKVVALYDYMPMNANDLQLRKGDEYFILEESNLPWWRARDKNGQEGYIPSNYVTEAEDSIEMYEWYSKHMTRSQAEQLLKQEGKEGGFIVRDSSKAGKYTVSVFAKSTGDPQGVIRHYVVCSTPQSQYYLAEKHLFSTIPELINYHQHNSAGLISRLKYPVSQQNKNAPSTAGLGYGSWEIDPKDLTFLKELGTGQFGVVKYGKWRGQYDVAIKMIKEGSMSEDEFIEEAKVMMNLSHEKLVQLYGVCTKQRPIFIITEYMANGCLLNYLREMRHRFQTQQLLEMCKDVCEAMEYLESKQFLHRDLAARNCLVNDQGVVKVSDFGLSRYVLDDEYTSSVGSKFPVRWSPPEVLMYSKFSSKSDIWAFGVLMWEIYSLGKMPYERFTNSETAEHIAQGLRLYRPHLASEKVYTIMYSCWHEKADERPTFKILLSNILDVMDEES
# Experiment Description: Inhibition of recombinant human full length N-terminal His6-tagged BTK expressed in baculovirus Sf21 insect cells preincubated for 5 mins followed by LSNLYHQGKFLQT substrate addition after 30 to 60 mins in presence of ATP by fluorescence assay
pIC50: −log10 of the molar value.

Molecule Smiles: C=CS(=O)(=O)N1CCC[C@@H]1Cn1cc(-c2ccc3c(c2)OCO3)c2c(N)ncnc21
pIC50: 7.05

====

# Experimental System: Dual specificity mitogen-activated protein kinase kinase 7 (Homo sapiens)
# Sequence (O14733 whole entry): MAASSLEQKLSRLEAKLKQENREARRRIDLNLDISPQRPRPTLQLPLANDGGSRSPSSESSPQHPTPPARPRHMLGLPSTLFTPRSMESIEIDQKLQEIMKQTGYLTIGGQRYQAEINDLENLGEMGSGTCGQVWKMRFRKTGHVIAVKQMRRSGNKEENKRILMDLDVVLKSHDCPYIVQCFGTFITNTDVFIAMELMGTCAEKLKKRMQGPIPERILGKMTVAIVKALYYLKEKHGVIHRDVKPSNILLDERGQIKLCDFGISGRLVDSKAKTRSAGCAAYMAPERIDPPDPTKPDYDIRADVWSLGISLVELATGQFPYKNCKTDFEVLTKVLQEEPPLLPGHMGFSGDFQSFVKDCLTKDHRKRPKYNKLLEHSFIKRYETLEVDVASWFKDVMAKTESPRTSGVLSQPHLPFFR
# Experiment Description: Inhibition of recombinant human N-terminal GST-tagged MKK7beta (2 to end residues) expressed in Escherichia coli preincubated for 5 mins followed by substrate addition after 30 to 60 mins in presence of ATP by fluorescence assay
Observation Type: IC50 (nM)

Molecule Smiles: C=CS(=O)(=O)N1CCC[C@@H]1Cn1cc(-c2ccc3c(c2)OCO3)c2c(N)ncnc21
Experimental System: Dual specificity mitogen-activated protein kinase kinase 7 (Homo sapiens)
Unit Name: nM
Obs Value: 189

====

# System: A549
# Experiment Description: Antiproliferative activity against human A549 cells harboring wild type EGFR after 72 hrs by MTT assay
# Format: functional, cell-based
# Condition Set: A549, 72 h

Compound: C=CC(=O)N1CCC(Cn2cc(-c3ccc4c(c3)OCO4)c3c(N)ncnc32)C1 (single isomer, unassigned)
IC50, µM: 8.24
--
Compound: C=CC(=O)N1CCC[C@@H]1Cn1cc(-c2ccc3c(c2)OCO3)c2c(N)ncnc21
IC50, µM: 12.9
--
Compound: C=CS(=O)(=O)N1CCC[C@@H]1Cn1cc(-c2ccc(Oc3ccccc3)cc2)c2c(N)ncnc21
IC50, µM: 7.44
--
Compound: C=CS(=O)(=O)N1CC[C@H](Cn2cc(-c3ccc(Oc4ccccc4)cc3)c3c(N)ncnc32)C1
IC50, µM: 13
--
Compound: C=CS(=O)(=O)N1CCC[C@@H]1Cn1cc(-c2ccc3c(c2)OCO3)c2c(N)ncnc21
IC50, µM: 4.15

====

# Experimental System: Serine/threonine-protein kinase PLK1 (Homo sapiens, UniProt P53350)
# Experiment Description: Inhibition of recombinant human N-terminal His6-tagged PLK1 expressed in baculovirus Sf21 insect cells preincubated for 5 mins followed by substrate addition after 30 to 60 mins in presence of ATP by fluorescence assay
pIC50: −log10 of the molar value.
Observation Type: pIC50

Molecule Smiles: C=CS(=O)(=O)N1CCC[C@@H]1Cn1cc(-c2ccc3c(c2)OCO3)c2c(N)ncnc21
Observation Type: pIC50
Obs Value: < 5.00

====

# Experimental System: Tyrosine-protein kinase Blk (Homo sapiens, UniProt P51451)
# Sequence (P51451 whole entry): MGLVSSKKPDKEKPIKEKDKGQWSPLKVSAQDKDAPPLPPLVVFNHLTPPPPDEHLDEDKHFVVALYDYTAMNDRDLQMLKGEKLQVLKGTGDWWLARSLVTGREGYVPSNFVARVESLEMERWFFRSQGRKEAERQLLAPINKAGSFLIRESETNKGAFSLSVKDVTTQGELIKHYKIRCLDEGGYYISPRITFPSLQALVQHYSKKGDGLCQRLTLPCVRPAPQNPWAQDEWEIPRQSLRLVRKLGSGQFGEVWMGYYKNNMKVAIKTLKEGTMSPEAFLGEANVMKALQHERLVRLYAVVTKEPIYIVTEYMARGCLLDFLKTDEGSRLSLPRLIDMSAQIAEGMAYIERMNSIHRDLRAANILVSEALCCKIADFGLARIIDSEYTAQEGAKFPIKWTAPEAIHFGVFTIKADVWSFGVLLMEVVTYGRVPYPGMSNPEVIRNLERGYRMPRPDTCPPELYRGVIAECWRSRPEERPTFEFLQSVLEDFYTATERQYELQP
pIC50: −log10 of the molar value.

Molecule Smiles: C=CS(=O)(=O)N1CCC[C@@H]1Cn1cc(-c2ccc3c(c2)OCO3)c2c(N)ncnc21
pIC50: 7.12

====

# Experimental System: Tyrosine-protein kinase JAK1 (Homo sapiens, UniProt P23458)
# Sequence (P23458 whole entry): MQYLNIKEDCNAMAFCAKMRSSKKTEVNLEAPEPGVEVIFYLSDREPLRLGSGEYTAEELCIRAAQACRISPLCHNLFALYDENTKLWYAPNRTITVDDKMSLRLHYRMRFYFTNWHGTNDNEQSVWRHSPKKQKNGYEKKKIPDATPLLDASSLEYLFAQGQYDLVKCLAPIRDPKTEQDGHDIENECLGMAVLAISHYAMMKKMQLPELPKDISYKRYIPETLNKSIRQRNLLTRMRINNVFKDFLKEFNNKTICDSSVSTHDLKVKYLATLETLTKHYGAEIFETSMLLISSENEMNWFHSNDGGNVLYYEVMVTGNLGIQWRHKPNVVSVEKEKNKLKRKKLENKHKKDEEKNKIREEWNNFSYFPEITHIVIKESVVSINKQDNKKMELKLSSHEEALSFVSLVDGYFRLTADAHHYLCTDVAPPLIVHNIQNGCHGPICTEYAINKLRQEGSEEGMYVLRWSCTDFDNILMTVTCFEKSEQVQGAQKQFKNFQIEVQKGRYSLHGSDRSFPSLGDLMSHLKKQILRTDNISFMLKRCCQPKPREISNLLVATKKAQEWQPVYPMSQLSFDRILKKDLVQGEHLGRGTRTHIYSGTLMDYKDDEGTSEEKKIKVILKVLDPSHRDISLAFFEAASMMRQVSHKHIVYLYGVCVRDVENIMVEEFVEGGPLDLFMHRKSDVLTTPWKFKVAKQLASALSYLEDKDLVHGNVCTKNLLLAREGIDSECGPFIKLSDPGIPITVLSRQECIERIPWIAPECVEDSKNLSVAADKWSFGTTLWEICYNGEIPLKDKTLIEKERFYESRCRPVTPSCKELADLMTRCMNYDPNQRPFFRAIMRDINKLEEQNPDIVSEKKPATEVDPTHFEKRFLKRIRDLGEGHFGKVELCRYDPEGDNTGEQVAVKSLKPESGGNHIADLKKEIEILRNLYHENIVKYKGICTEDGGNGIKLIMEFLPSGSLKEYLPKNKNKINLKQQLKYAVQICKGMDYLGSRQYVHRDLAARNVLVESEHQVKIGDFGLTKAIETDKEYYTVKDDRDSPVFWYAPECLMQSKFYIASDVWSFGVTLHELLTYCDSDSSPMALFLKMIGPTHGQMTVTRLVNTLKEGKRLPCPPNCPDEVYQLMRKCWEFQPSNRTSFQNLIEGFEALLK
# Experiment Description: Inhibition of human JAK1 expressed in baculovirus in Sf21 insect cells preincubated for 5 mins followed by substrate addition after 30 to 60 mins in presence of ATP by fluorescence assay

Molecule Smiles: C=CS(=O)(=O)N1CCC[C@@H]1Cn1cc(-c2ccc3c(c2)OCO3)c2c(N)ncnc21
Experimental System: Tyrosine-protein kinase JAK1 (Homo sapiens, UniProt P23458)
IC50: > 10 µM

====

# Experimental System: Tyrosine-protein kinase Fer (Homo sapiens, UniProt P16591)
# Experiment Description: Inhibition of recombinant human N-terminal His6-tagged FER (541 to end residues) expressed in baculovirus Sf21 insect cells preincubated for 5 mins followed by substrate addition after 30 to 60 mins in presence of ATP by fluorescence assay

Molecule Smiles: C=CS(=O)(=O)N1CCC[C@@H]1Cn1cc(-c2ccc3c(c2)OCO3)c2c(N)ncnc21
Experimental System: Tyrosine-protein kinase Fer (Homo sapiens, UniProt P16591)
IC50 (µM): 5.91

====

# Experimental System: Tyrosine-protein kinase HCK (Homo sapiens, UniProt P08631)
# Experiment Description: Inhibition of recombinant human N-terminal His6-tagged HCK (230 to 497 residues) expressed in baculovirus Sf21 insect cells preincubated for 5 mins followed by substrate addition after 30 to 60 mins in presence of ATP by fluorescence assay
pIC50: −log10 of the molar value.
Observation Type: pIC50

Molecule Smiles: C=CS(=O)(=O)N1CCC[C@@H]1Cn1cc(-c2ccc3c(c2)OCO3)c2c(N)ncnc21
Observation Type: pIC50
Obs Value: 6.70

====

# Experimental System: Tyrosine-protein kinase Tec (Homo sapiens)
# Sequence (P42680 whole entry): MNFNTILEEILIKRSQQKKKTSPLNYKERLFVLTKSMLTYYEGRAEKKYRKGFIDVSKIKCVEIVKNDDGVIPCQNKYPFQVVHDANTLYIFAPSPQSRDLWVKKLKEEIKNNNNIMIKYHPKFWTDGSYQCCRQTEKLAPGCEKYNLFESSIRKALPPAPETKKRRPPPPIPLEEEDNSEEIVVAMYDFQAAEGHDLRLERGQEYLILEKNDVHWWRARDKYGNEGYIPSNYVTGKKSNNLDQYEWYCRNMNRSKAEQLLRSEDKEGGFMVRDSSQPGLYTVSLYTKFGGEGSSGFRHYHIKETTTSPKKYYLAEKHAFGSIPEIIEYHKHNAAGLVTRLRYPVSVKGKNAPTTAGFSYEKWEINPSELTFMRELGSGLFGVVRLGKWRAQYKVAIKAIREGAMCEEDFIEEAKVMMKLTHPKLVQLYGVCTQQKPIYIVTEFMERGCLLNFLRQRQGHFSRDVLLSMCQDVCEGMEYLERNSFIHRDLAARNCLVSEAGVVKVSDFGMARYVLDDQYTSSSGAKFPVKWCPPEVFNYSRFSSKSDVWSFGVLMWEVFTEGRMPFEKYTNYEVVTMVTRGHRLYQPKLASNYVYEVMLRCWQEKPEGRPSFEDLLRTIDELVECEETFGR
# Experiment Description: Inhibition of recombinant human N-terminal His6-tagged TEC (174 to end residues) expressed in baculovirus Sf21 insect cells preincubated for 5 mins followed by Ulight-TK peptide substrate addition after 30 to 60 mins in presence of ATP by fluorescence assay
pIC50: −log10 of the molar value.

Molecule Smiles: C=CS(=O)(=O)N1CCC[C@@H]1Cn1cc(-c2ccc3c(c2)OCO3)c2c(N)ncnc21
pIC50: 6.94

====

# Experimental System: UniProt:P12931
# Sequence (P12931 2-536 limits assumed): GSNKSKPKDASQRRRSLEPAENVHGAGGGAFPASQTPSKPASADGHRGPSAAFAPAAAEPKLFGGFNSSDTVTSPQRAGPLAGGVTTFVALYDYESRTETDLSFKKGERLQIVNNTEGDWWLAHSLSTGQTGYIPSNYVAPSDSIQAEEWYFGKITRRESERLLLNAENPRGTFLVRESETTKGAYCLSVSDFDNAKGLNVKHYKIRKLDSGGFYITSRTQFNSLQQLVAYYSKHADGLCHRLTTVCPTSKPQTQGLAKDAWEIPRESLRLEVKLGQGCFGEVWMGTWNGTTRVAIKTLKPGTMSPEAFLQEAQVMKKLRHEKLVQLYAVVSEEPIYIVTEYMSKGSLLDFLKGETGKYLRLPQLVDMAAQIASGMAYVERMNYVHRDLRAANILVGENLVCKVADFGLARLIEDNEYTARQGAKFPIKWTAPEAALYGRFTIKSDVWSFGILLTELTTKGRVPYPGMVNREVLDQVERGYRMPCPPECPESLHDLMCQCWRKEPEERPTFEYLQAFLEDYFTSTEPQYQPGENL
# Experiment Description: Inhibition of recombinant human full length N-terminal His6-tagged SRC expressed in Sf21 insect cells preincubated for 5 mins followed by substrate addition after 30 to 60 mins in presence of ATP by fluorescence assay

Molecule Smiles: C=CS(=O)(=O)N1CCC[C@@H]1Cn1cc(-c2ccc3c(c2)OCO3)c2c(N)ncnc21
Experimental System: UniProt:P12931
IC50 (nM): 197

====

# Experimental System: Tyrosine-protein kinase Yes (Homo sapiens, UniProt P07947)
# Sequence (P07947 whole entry): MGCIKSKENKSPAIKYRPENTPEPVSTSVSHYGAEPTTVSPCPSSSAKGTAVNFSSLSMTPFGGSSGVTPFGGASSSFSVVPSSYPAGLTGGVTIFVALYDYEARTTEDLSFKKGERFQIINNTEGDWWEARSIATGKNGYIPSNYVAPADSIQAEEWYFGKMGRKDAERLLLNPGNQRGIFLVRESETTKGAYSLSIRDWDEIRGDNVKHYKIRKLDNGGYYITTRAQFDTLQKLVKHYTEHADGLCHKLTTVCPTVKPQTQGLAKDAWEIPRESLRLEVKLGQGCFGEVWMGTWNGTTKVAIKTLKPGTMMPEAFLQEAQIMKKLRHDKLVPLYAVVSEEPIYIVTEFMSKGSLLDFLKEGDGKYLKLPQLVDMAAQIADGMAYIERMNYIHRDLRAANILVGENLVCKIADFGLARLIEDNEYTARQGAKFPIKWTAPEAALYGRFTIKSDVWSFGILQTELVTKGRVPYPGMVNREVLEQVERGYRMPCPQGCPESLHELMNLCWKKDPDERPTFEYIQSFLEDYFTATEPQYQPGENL
# Experiment Description: Inhibition of recombinant human full length N-terminal His6-tagged YES expressed in baculovirus Sf21 insect cells preincubated for 5 mins followed by biotinyl-beta Abeta Abeta AYQAEENTYDEYEN substrate addition after 30 to 60 mins in presence of ATP by fluorescence assay
Observation Type: IC50 (nM)

Molecule Smiles: C=CS(=O)(=O)N1CCC[C@@H]1Cn1cc(-c2ccc3c(c2)OCO3)c2c(N)ncnc21
Experimental System: Tyrosine-protein kinase Yes (Homo sapiens, UniProt P07947)
Obs Value: 57.3

Origin of values: ChEMBL document CHEMBL4052785
